# Test system: TO-N3 (biotin conjugate)
# procedureSummary: pull-down binding Z-score (relative to library population); higher = stronger binding
# appliedConditions: RNA library: Library-2
readout: pull-down binding Z-score
Number only, no unit.

Recorded pull-down binding Z-score, per entry:
entrySequence	target	reading
AGUCCCUGUUGCUAUUCAUGCAGAUCAACUUACUCCUACUUGGCGUGUUUAUUCUACAGGUUCUAAUGUUUUUCAAACACGUGCAGGCUGUUUAAUAGGGGCU	TO-N3 (biotin conjugate)	-1.03
GAAGAGGGAGCAAUUGUUGGCGAAAUUUCACCAUUGCCUUCUCUUC [IAV_invivo_NS1_NEP_8_Motif_10+IAV_invivo_NS1_NEP_8_Motif_10]	TO-N3 (biotin conjugate)	0.0993
GGCGGCUCGGAGUACCUCUGCCGCC [hsa-mir-6869]	TO-N3 (biotin conjugate)	0.666
UAGUGAUGAAGUUGCGAGAGACUUGUCACUA	TO-N3 (biotin conjugate)	-0.688

Turning to the following sequence.
Look up and report measured pull-down binding Z-score for this entry: CACCUCCCGGCCCGGAGCUG [hsa-mir-4734]
-0.0704

----------
# Test system: TO-N3-2 (biotin conjugate)
# procedureSummary: pull-down binding Z-score (relative to library population); higher = stronger binding
# appliedConditions: RNA library: Library-2
readout: pull-down binding Z-score
Number only, no unit.

entrySequence	reading
GGAUCAUGUUUGCCCCCGUGGACAGCUCUCUGGUGUGCUCCUCCUGCCAUCCUGCCCACCCCUGCAUAAUGCUGCUUC [hsa-mir-6809]	1.5
AGUAGCUGGGAAUACAGGUGUGUGCCACCAUGCCUCUACAAGCUACC [hsa-mir-7851]	0.445
ACCUUCCAAGGCUCAGAAGGU [hsa-mir-4650-1_4650-2]	-0.0713
CGUUCCAAUGCGACACCUCUAGAGUGUCAUCCCCUAGAAUGUCACCUUGGAAAG [hsa-mir-4432]	-0.0713
UAGGCUGUGCAGGUCCCAAUGGGCCUA [hsa-mir-26a-1]	0.528

Tell me pull-down binding Z-score reported for UGGUUUCACUA [hsa-mir-3713]
-0.526

Using the record for GGGAUUAUCCU , state its measured pull-down binding Z-score.
-0.985

Give pull-down binding Z-score for AGUUUUUGUACACAAUUAAACCGUGCUUUAACU
-1.04

----------
# Tested on: TO-3-N3 (biotin conjugate)
# procedureSummary: pull-down binding Z-score (relative to library population); higher = stronger binding
# appliedConditions: RNA library: Library-2
# pull-down binding Z-score >= -0.3 gives satisfied, anything below gives not satisfied

# example entries with known answers
entrySequence	assignedCategory
AGUGUGCAGUCAUCCACACA [hsa-mir-4731]	not satisfied
UAUUUCAAAAGACUAGAGGUAGGAAAUGAG [hsa-mir-3975]	not satisfied
GGCAACUAGCACUCUCCAAGGGUGUUCACUUUGUUUGCAACUUGCUGUUGUUGUUUGUAACAGUUUACUCACACCUUUUGCUCGUUGCU [SHAPE_invitro_SARS-CoV-2_Motif_465]	not satisfied

In plain terms: is recorded pull-down binding Z-score at least -0.3 for AUGCCUGAGAAUAUAUGAAGGAGGCU [hsa-mir-204] ?
satisfied

Assess whether reported pull-down binding Z-score for ACGUCCAGUGGUGCAGAGGUAAUGGACGU [hsa-mir-1306] sits at -0.3 or higher.
satisfied
